Data origin: ChEMBL document CHEMBL4177671

Measurement description: Cytotoxicity against African green monkey Vero cells after 3 to 4 days by Alamar Blue dye-based spectrophotometric method
Format: cell-based
Condition set: chlorocebus sabaeus, read-out: ED50 (the source's name)
Endpoint name: CC50

Some solved cases for reference:
N#C[Se]CC1Cc2c(Oc3ccccc3)cccc2O1 (racemic) : > 125 µM
N#C[Se]CCOc1ccc(Oc2ccc(F)cc2)cc1 : 122 µM

Below are some compounds; for each one, tell me its CC50.
1. N#C[Se]CCOc1cccc(Oc2ccccc2F)c1
2. N#C[Se]CCOc1cccc(I)c1
3. N#C[Se]CCOc1ccc(I)cc1
4. N#C[Se]CCOc1ccc(Oc2cccc(F)c2)cc1
5. N#CSCCOc1cccc(Sc2ccccc2)c1
6. N#C[Se]CC1Cc2ccc(Oc3ccccc3)cc2O1 (racemic)
7. N#C[Se]CCOc1cccc(Oc2ccccc2)c1

1. 140 µM
2. > 62.5 µM
3. > 50 µM
4. 153 µM
5. > 50 µM
6. > 125 µM
7. > 150 µM

Below are some compounds; for each one, tell me its CC50.
1. N#C[Se]CCOc1cccc(Oc2ccc(F)cc2)c1
2. N#CSCC1Cc2cc(Oc3ccccc3)ccc2O1 (stereo not drawn)
3. N#C[Se]CCOc1cccc(Oc2cccc(F)c2)c1
4. N#CSCCOc1ccc(Oc2ccccc2)cc1

1. > 125 µM
2. > 62.5 µM
3. > 62.5 µM
4. 82.6 µM

----------
Measurement description: Cytotoxicity against African green monkey Vero cells after 3 to 4 days by Alamar Blue dye-based spectrophotometric method
Format: cell-based
Condition set: chlorocebus sabaeus, read-out: ED50 (the source's name)
Assignment: determine reported CC50 for the given compounds.

N#C[Se]CC1Cc2cc(Oc3ccccc3)ccc2O1 (racemic) : > 125 µM
N#C[Se]CCOc1ccc(Oc2ccccc2)cc1 : > 100 µM
N#C[Se]CCOc1cccc(Oc2ccc(Cl)cc2)c1 : > 125 µM
N#CSCCOc1ccc(Sc2ccccc2)cc1 : > 62.5 µM

API: the following record is the query input.
Look up and state reported CC50 for N#C[Se]CCOc1ccc(Cl)cc1Cl > 62.5 µM

----------
Measurement description: Selectivity index, ratio of ED50 for African green monkey Vero cells to ED50 for Trypanosoma cruzi
Format: toxicity
Condition set: Vero cells versus Trypanosoma cruzi, read-out: Ratio ED50
Endpoint name: selectivity ratio

N#C[Se]CCOc1ccc(Oc2cccc(F)c2)cc1 : 1800
N#C[Se]CC1Cc2ccc(Oc3ccccc3)cc2O1 (racemic) : > 1040
N#C[Se]CCOc1cccc(Oc2ccc(F)cc2)c1 : > 1260

Below are some compounds; for each one, tell me its selectivity ratio.
1. N#C[Se]CCOc1cccc(Oc2ccccc2F)c1
2. N#C[Se]CC1Cc2cc(Oc3ccccc3)ccc2O1 (racemic)
3. N#C[Se]CCOc1ccc(Cl)cc1Cl
4. N#C[Se]CCOc1ccc(Oc2ccccc2)cc1

[1110, "> 1500", "> 45.3", "> 917"]

----------
Assignment: determine reported EC50 for the given molecules.
System: Toxoplasma gondii
Measurement description: Antiparasitic activity against tachyzoite stage of Toxoplasma gondii expressing red fluorescent protein infected in gamma-irradiated African green monkey Vero cells by fluorescence assay
Assay type: functional
Condition set: light or radiation study, read-out: ED50 (the source's name)
One number for each entry, in µM.

Some solved cases for reference:
N#CSCCOc1ccc(Oc2ccccc2)cc1 : 4.8
N#CSCCOc1ccc(Sc2ccccc2)cc1 : 4.58
N#CSCCOc1cccc(Sc2ccccc2)c1 : 3.58
N#C[Se]CCOc1cccc(Oc2ccccc2)c1 : 2.87

Look up and state reported EC50 for N#C[Se]CCOc1ccc(Oc2ccccc2)cc1 3.7

----------
Measurement description: Selectivity index, ratio of ED50 for African green monkey Vero cells to ED50 for Trypanosoma cruzi
Type: toxicity
Condition set: Vero cells versus Trypanosoma cruzi, read-out: Ratio ED50
Endpoint name: selectivity ratio

N#C[Se]CCOc1cccc(I)c1 : > 11.5

Below are some compounds; for each one, tell me its selectivity ratio.
1. N#CSCCOc1ccc(Sc2ccccc2)cc1
2. N#C[Se]CC1Cc2c(Oc3ccccc3)cccc2O1 (racemic)
3. N#C[Se]CCOc1cccc(Oc2ccc(Cl)cc2)c1
4. N#C[Se]CCOc1cccc(Oc2ccccc2)c1
5. N#C[Se]CCOc1cccc(Oc2cccc(F)c2)c1
6. N#CSCC1Cc2cc(Oc3ccccc3)ccc2O1 (configuration not stated)

["> 10.9", "> 307", "> 1100", "> 1760", "> 833", "> 10.4"]
